System: Pseudomonas aeruginosa
Test: Tested for inhibition of visible growth of Pseudomonas aeruginosa
Format: functional
measured.property: MIC (µg/mL)

(P) CC1(C)S[C@@H]2[C@H](NC(=O)C(C(=O)O)c3ccccc3)C(=O)N2[C@H]1C(=O)O (stereo not given in full)
(Q) CC1(C)SC2C(NC(=O)C(C(=O)O)c3ccc4c(c3)OCO4)C(=O)N2C1C(=O)O (racemic)
Two entries are listed, P and Q . Which one carries the higher MIC? Give the label under which the chosen entry appears.
Q

---

Test system: Escherichia coli
Test: Tested for inhibition of visible growth of Escherichia coli
Type: functional
measured.property: MIC (µg/mL)

| compound | assay.target | measurement.unit | value |
| --- | --- | --- | --- |
| CC1(C)SC2C(NC(=O)[C@H](N)c3ccc4c(c3)CCO4)C(=O)N2C1C(=O)O (stereo partly specified) | Escherichia coli | µg/mL | 25 |

(A) CC1(C)S[C@@H]2[C@H](NC(=O)[C@H](N)c3ccc(O)cc3)C(=O)N2[C@H]1C(=O)O
(B) CC(=O)OCC1=C(C(=O)O)N2C(=O)C(NC(=O)C(N)c3ccc4c(c3)OCO4)C2SC1 (racemic)
(C) CC1=C(C(=O)O)N2C(=O)C(NC(=O)C(N)c3ccc4c(c3)OCCO4)C2SC1 (mixture of isomers)
Hey, quick one: sort these by MIC, low to high? Form entry: labels listed in requested order.
A, B, C

(P) Cn1nnnc1SCC1=C(C(=O)O)N2C(=O)C(NC(=O)[C@H](N)c3ccc4c(c3)OCO4)C2SC1 (stereo partly specified)
(Q) CC1=C(C(=O)O)N2C(=O)[C@@H](NC(=O)[C@H](N)c3ccccc3)[C@H]2SC1 [CEPHALEXIN ANHYDROUS]
(R) CC(=O)OCC1=C(C(=O)O)N2C(=O)C(NC(=O)[C@H](N)c3ccc4c(c3)CCO4)C2SC1 (stereo partly specified)
Falling order of MIC, please. Form entry: labels listed in requested order.
R, Q, P

---

Test system: Klebsiella pneumoniae
Assay: Tested for inhibition of visible growth of Klebsiella pneumoniae
Assay type: functional
measured.property: MIC (µg/mL)

Solved entries (count: 6):
| compound | MIC (µg/mL) |
| --- | --- |
| CC1(C)SC2C(NC(=O)C(N)c3ccc4c(c3)OCO4)C(=O)N2C1C(=O)O (centres undefined) | 6.2 |
| CC(=O)OCC1=C(C(=O)O)N2C(=O)C(NC(=O)C(N)c3cccc4c3OCO4)C2SC1 (racemic) | 50 |
| CC(=O)OCC1=C(C(=O)O)N2C(=O)C(NC(=O)C(N)c3ccc4c(c3)OCO4)C2SC1 (racemic) | 25 |
| Cc1nnc(SCC2=C(C(=O)O)N3C(=O)C(NC(=O)[C@H](N)c4ccc5c(c4)CCO5)C3SC2)s1 (some centres undefined) | 6.2 |
| CC1=C(C(=O)O)N2C(=O)C(NC(=O)[C@H](N)c3ccc4c(c3)OCO4)C2SC1 (some centres undefined) | 25 |
| CC(=O)OCC1=C(C(=O)O)N2C(=O)C(NC(=O)[C@H](N)c3ccc4c(c3)CCO4)C2SC1 (some centres undefined) | 6.2 |

(I) NC(C(=O)NC1C(=O)N2C(C(=O)O)=C(CSc3cn[nH]n3)CS[C@H]12)c1ccc2c(c1)CCO2 (some centres undefined)
(II) CC1=C(C(=O)O)N2C(=O)C(NC(=O)C(N)c3ccc4c(c3)CCO4)C2SC1 (racemic)
Two entries are listed, I and II . Which one carries the higher MIC? Give the label under which the chosen entry appears.
II
(II: 50 µg/mL, I: 6.2 µg/mL)
